# cell viability listing for each entry below
Test system: P12-Ichikawa
assay info: cell viability relative to DMSO control; higher = less cytotoxic
condition parameters: RPMI 5 mM glucose + 10% FBS; 48 h; 0.0632 µM
Please respond with the number in % and leave the unit unwritten.

NC(=O)c1ncn([C@@H]2O[C@H](CO)[C@@H](O)[C@H]2O)n1 : 122

// switching to the query molecule
Given the molecule COC[C@@H](NC(C)=O)C(=O)NCc1ccccc1 , what is its reported cell viability?
113

----------
Quick reference for cell viability among some molecules
System: NOMO1
assay info: cell viability relative to DMSO control; higher = less cytotoxic
condition parameters: HPLM + 10% dialyzed FBS; 48 h; 0.00702 µM
Value expressed in %; do not type the unit.

Look over these answered cases.
OC[C@H](Cc1ccccc1)Nc1nc(Oc2ccc3c(c2)CCC3)nc2c1ncn2Cc1ccc(-c2ccccc2)cc1 : 83.5
Clc1cc(Cl)cc(CNc2ncncc2-c2ccc3c(c2)OCO3)c1 : 97.1
CCOC(=O)[C@H](CCc1ccccc1)N[C@@H](C)C(=O)N1CCC[C@H]1C(=O)O : 117
CC(=O)NC(CS)C(=O)O (configuration not stated) : 104
C=CC1=C(C(=O)O)N2C(=O)[C@@H](NC(=O)/C(=N\O)c3csc(N)n3)[C@H]2SC1 : 119
COc1cc(O)c2c(c1)C1OC1C[C@H](O)[C@H](O)C(=O)/C=C\C[C@H](C)OC2=O (some centres not stated) : 104

Consider now this further molecule.
// fetch NOMO1 cell viability for CC(C)Nc1cc(C(F)(F)F)cc2nc(NC(=O)c3cccnc3)nn12
118
